Taken from paper PMC7531004.

# Tested on: Streptococcus pyogenes SSI-9
# Test: Antibacterial activity assay of bead-derived peptides (three concentrations)
# Assay type: cell-based
# Design: key: +++: inhibition by the 640-fold diluted peptide solution; ++: inhibition by the 160-fold diluted solution; +: inhibition by the 40-fold diluted solution; -: no inhibition
# Test Settings: S. pyogenes, bead-derived peptide solution, three concentrations
Where a SMILES comes first, the peptide text is derived from it. [ ]: non-standard residue; d: D form. The star is where a group is joined. NHCH2CH2OH = OCCN*; For = O=C*
Measure Name: antibacterial activity

>>> measured("CNC(=O)C[C@@H](NC(=O)[C@H](C)NC(=O)[C@H](NC(=O)[C@H](C)NC(=O)CNC(=O)[C@@H](NC=O)C(C)C)C(C)C)C(=O)N[C@H](C(=O)N[C@H](CC(C)C)C(=O)N[C@@H](Cc1c[nH]c2ccccc12)C(=O)N[C@@H](C(=O)N[C@@H](Cc1c[nH]c2ccccc12)C(=O)N[C@@H](C(=O)N[C@@H](Cc1c[nH]c2ccccc12)C(=O)N[C@@H](C(=O)N[C@@H](Cc1c[nH]c2ccccc12)C(=O)NCCO)C(C)C)C(C)C)C(C)C)C(C)C [compound 13148] (For-VGA[dV]A[dD](NHMe)V[dL]W[dV]W[dV]W[dV]W-NHCH2CH2OH)")
"-"
>>> measured("CC(C)C[C@@H](NC(=O)[C@H](C)NC(=O)[C@H](NC(=O)[C@H](C)NC(=O)CNC(=O)[C@@H](NC=O)C(C)C)C(C)C)C(=O)N[C@H](C(=O)N[C@H](CC(C)C)C(=O)N[C@@H](Cc1c[nH]c2ccccc12)C(=O)N[C@H](CC(C)C)C(=O)N[C@@H](Cc1c[nH]c2ccccc12)C(=O)N[C@@H](C(=O)N[C@@H](Cc1c[nH]c2ccccc12)C(=O)N[C@@H](C(=O)N[C@@H](Cc1c[nH]c2ccccc12)C(=O)NCCO)[C@H](C)O)C(C)C)C(C)C [compound 5370] (For-VGA[dV]A[dL]V[dL]W[dL]W[dV]W[dT]W-NHCH2CH2OH)")
"++"
>>> measured("CNC(=O)C[C@@H](NC(=O)[C@H](Cc1c[nH]c2ccccc12)NC(=O)[C@H](NC(=O)[C@H](Cc1c[nH]c2ccccc12)NC(=O)[C@H](NC(=O)[C@H](Cc1c[nH]c2ccccc12)NC(=O)[C@@H](CC(C)C)NC(=O)[C@@H](NC(=O)[C@H](NC(=O)[C@H](C)NC(=O)[C@@H](CC(C)C)NC(=O)[C@H](C)NC(=O)CNC(=O)[C@@H](NC=O)C(C)C)C(C)C)C(C)C)C(C)C)C(C)C)C(=O)N[C@@H](Cc1c[nH]c2ccccc12)C(=O)NCCO [compound 6808] (For-VGA[dL]A[dV]V[dL]W[dV]W[dV]W[dD](NHMe)W-NHCH2CH2OH)")
"-"
>>> measured("CC(C)C[C@@H](NC(=O)[C@H](C)NC(=O)CNC(=O)[C@@H](NC=O)C(C)C)C(=O)N[C@@H](C)C(=O)N[C@H](CC(C)C)C(=O)N[C@H](C(=O)N[C@@H](C(=O)N[C@@H](Cc1c[nH]c2ccccc12)C(=O)N[C@@H](C(=O)N[C@@H](Cc1c[nH]c2ccccc12)C(=O)N[C@H](CC(C)C)C(=O)N[C@@H](Cc1c[nH]c2ccccc12)C(=O)N[C@H](CC(C)C)C(=O)N[C@@H](Cc1c[nH]c2ccccc12)C(=O)NCCO)[C@H](C)O)C(C)C)C(C)C [compound 7067] (For-VGA[dL]A[dL]V[dV]W[dT]W[dL]W[dL]W-NHCH2CH2OH)")
"-"
